B1: library; a variant is named by its letters at N, in order (parent)
chain: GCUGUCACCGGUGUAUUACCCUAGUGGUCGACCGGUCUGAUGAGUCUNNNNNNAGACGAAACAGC

Variants of: B1
ASSAY_COMMENT: FACS-Seq fitted mean relative fluorescence mCherry/BFP without ligand (log10 relative fluorescence); ligand: hypoxanthine (xanthine aptamer); higher = higher reporter protein expression
CONDITION_SET: HEK293T, ligand present: no
MEASURED_PARAMETER: FACS-Seq fitted mean (log10)

CCUACA: 0.617
AACCAG: 0.356
GGUCAC: 0.222

Given CAACAC , state its recorded FACS-Seq fitted mean (log10).
0.465

Cool, now UUCGAU
0.164

Cool, now GAGAAU
0.458

Cool, now ACAUCG
0.306

Cool, now UUCAAA
0.11

Cool, now UCGCAA
0.477

Cool, now UGGCAG
0.155

Cool, now ACGAAG
-0.023
